Recorded melting point for the following compounds

In: Which melting point is reported for this compound? CON1C(C)(C)CC(OC(=O)CCc2cc(-n3nc4ccccc4n3)c(O)c(C(C)(C)C)c2)CC1(C)C
Out: 135 to 137 °C

In: Quick one: CN(CCOc1ccc(NC(=O)c2cccc3c(=O)c4ccccc4[nH]c23)cc1)Cc1ccccc1
Out: 173 °C

In: Quick one: CC(C)OC(=O)Nc1ccsc1
Out: 105 to 107 °C

Further cases:
In: Which melting point is reported for this compound? Nc1ccc(C#Cc2ccc(C#Cc3ccccc3)cc2[N+](=O)[O-])cc1
Out: 166 to 168 °C

In: Quick one: CN1CCN(Cc2c(Cl)cccc2Cl)C(C2=NCCN2)C1 (stereo not drawn)
Out: 182 to 184 °C

In: Quick one: Cc1c(-c2ccccc2)n(Cc2ccccc2)c2ccc(-c3ccc(OCC#N)cc3)cc12
Out: 140 °C

In: Quick one: COc1ccc(Nc2nc(Cl)nc(Nc3ccc(OC)c(F)c3)n2)cc1F
Out: 194 °C

In: Quick one: COc1cccc(OC)c1C(N)=O
Out: 208 to 209 °C

----------
REPORTED_PROPERTY: melting point

Field: example entries. Status: answers known.
In: Which melting point is reported for this compound? CCOC(=O)C(C)=CNc1ccc2ccccc2n1
Out: 164 to 165 °C

In: Quick one: Cn1c(-c2ccc(C(=O)O)cc2)ccc1-c1ccc(C(F)(F)F)cc1
Out: 260 to 261 °C

In: Quick one: Nc1ccc(Sc2ncccn2)cc1
Out: 124 to 126 °C

In: Quick one: O=C(O)COc1ccc2c(-c3ccc(Cl)cc3)noc2c1
Out: 207 °C

In: Quick one: Nn1cc(C(=O)O)c(=O)c2cc3c(cc21)OCO3
Out: 309 to 313 °C

Further cases:
In: Which melting point is reported for this compound? COc1cc2c(cc1OC)C1CC(=O)C3CCCCC3N1CC2 (stereo not given)
Out: 129 to 141 °C

In: Quick one: COc1ccc(Nc2nc(Cl)nc(OCC3CCCCC3)n2)cc1F
Out: 98 °C

----------
Recorded melting point for the following compounds

In: Which melting point is reported for this compound? CC(NC(=O)/C=C\C(=O)O)C(O)c1ccccc1 (stereo unspecified)
Out: 154 to 156 °C

In: Quick one: O=c1[nH]cccc1-c1cccn2nc(Nc3ccc4ncccc4c3)nc12
Out: > 250 °C

In: Quick one: CC[C@@H](Nc1nc(NCc2cccnc2)c2ncn(C(C)C)c2n1)C(C)(C)O
Out: 138 to 145 °C

Further cases:
In: Which melting point is reported for this compound? O=C(C[C@H](NC(=O)OCc1ccccc1)C(=O)Nc1cc(Cc2n[nH]c(=O)c3ccccc23)ccc1F)OCc1ccccc1
Out: 76 to 80 °C

In: Quick one: COC(=O)c1cc(-c2ccc(OC)c(Cl)c2)nn(CC2CC2)c1=O
Out: 101 to 104 °C

In: Quick one: COCCOc1ccc(/C=C/C(=O)NS(=O)(=O)c2cccc(C#N)c2)c(Oc2ncc(C(F)(F)F)cc2Cl)c1
Out: 195 to 197 °C

In: Quick one: NS(=O)(=O)c1cc(C(=O)O)cc([N+](=O)[O-])c1NC1CCCCC1
Out: 185 to 186 °C

In: Quick one: CCc1[nH]n(C2CCCC2)c2nc(-c3cccc(OCCN4CCCCC4)c3)nc(=O)c1-2
Out: 180 °C

In: Quick one: Oc1ccccc1OCC1NCCS1 (stereo unspecified)
Out: 76 to 78 °C

In: Quick one: Cc1ccc2c(OCCCl)c3ccccc3c(OCCCl)c2c1
Out: 82 to 85 °C

In: Quick one: Cc1cccc(NC(=O)NCC(=O)N(CC(=O)N(CC(=O)OC(C)(C)C)c2ccccc2)c2ccccc2)c1
Out: 76 to 80 °C

In: Quick one: CCOC(=O)c1cnn(-c2ccc(-n3cc(OC)c(=O)c(-c4ccnn4-c4ccccc4)n3)c(F)c2)c1O
Out: 188 to 193 °C

In: Quick one: C=CCC(C#N)(C#N)C(C)(C)c1cccc(Cl)c1
Out: 84.3 °C

In: Quick one: CCC(CCNC(=O)CC#N)NC(=O)CC#N (stereo unspecified)
Out: 125 °C

In: Quick one: COc1ccc(O)c(CNc2ccccc2)c1
Out: 82 to 84 °C

In: Quick one: COc1ccc(OC(c2ccc(OC)cc2)C(Cl)(Cl)Cl)cc1 (stereo unspecified)
Out: 90 °C

----------
REPORTED_PROPERTY: melting point

Field: example entries. Status: answers known.
In: Which melting point is reported for this compound? CCN(CC)C(=O)c1c(C(C)C)cc(OC)cc1S(N)(=O)=O
Out: 122 to 125 °C

In: Quick one: ON=C(c1ccc2c(c1)OCO2)C(F)(F)F
Out: 96 °C

In: Quick one: COc1ccc(-c2sc3c(c2C)c(=O)c(CO)cn3Cc2ccccc2OC)cc1
Out: 153 to 156 °C

Read the next record carefully.
In: Which melting point is reported for this compound? CC(C)c1cc(CCC(=O)O)n(Cc2ccc(C(F)(F)F)cc2Cl)n1
Out: 117 to 119 °C

----------
Recorded melting point for the following compounds

In: Which melting point is reported for this compound? O=C1C(=O)c2ccccc2C2=C1SCC1(CCN(Cc3ccccc3F)CC1)O2
Out: 118 to 122 °C

In: Quick one: CSc1nn2c(N)cc(N3CCN(C)CC3)nc2c1S(=O)(=O)c1ccccc1
Out: > 230 °C

In: Quick one: OC(CCc1nc(CCl)no1)c1ccc(-c2ccccc2)cc1 (stereo not drawn)
Out: 48 to 49 °C

----------
Recorded melting point for the following molecules

In: Which melting point is reported for this molecule? Cc1cc(OCC(F)(F)F)c([N+](=O)[O-])c(OCC(F)(F)F)n1
Out: 72.8 to 73.2 °C

In: Quick one: O=C(NCCCN1CCN(Cc2ccc(Cl)cc2)CC1)Nc1ccccc1
Out: 135 to 137 °C

In: Quick one: CCn1cc(C(=O)O)c(=O)c2cnc(N3CCN(Cc4ccc(N)cc4)CC3)nc21
Out: 198 to 201 °C

In: Quick one: O=C(O)CC[C@@H](Cc1cn(Cc2ccccc2)c2ccccc12)NC(=O)CCCCCCc1ccccc1
Out: 130 to 132 °C

In: Quick one: Cc1nc(-n2cc(C(=O)Nc3ccccc3)ccc2=O)sc1C(=O)NCc1ccccc1
Out: 223 to 225 °C

In: Quick one: O=C(NC1CCCCC1O)c1ccccc1 (stereo not given)
Out: 172 to 173 °C

In: Quick one: CCOC(=O)c1ccc(-c2nc3cc4c(cc3[nH]2)NC(=O)C4(C)C)c(OC)c1
Out: 235 to 240 °C

In: Quick one: COCOc1ccc(Cl)c(F)c1C=O
Out: 44 to 49 °C

In: Quick one: CS(=O)(=O)Oc1ccccc1CC(=O)O
Out: 110 °C

In: Quick one: c1ccc(CCN2CCN(Cc3nc4ccccc4[nH]3)CC2)cc1
Out: 150 to 152 °C

Read the next record carefully.
In: Which melting point is reported for this molecule? N#CC(=Cc1ccc(O)c(O)c1)C(=O)Nc1ccc(Cl)cc1
Out: 290 °C

----------
Recorded melting point for the following compounds

Field: example entries. Status: answers known.
In: Which melting point is reported for this compound? O=C(/C=C/c1cccc(Br)c1)NC1CC1
Out: 110 to 111 °C

In: Quick one: CCCCCCCCCCCCCCCCCCNC(=O)OCC(CN)NC(=O)OC (centres undefined)
Out: 128 to 129 °C

In: Quick one: Cc1cc(OCCN(C)C)c(C(C)C)cc1OC(=O)CCCC(=O)O
Out: 109 to 110 °C

In: Quick one: COc1ccc(C=C2C=CC(=O)O2)cc1
Out: 118 to 120 °C

In: Quick one: O=C(NCC12CC3CC(CC(C3)C1)C2)c1cc(-c2cccnc2N2CCC(C(=O)O)CC2)ccc1Cl
Out: 110 to 115 °C

Further cases:
In: Which melting point is reported for this compound? COc1ccc2c(c1)N(CC1CN3CCC1CC3)c1ccccc1S2 (centres undefined)
Out: 135 to 136 °C

In: Quick one: CC(c1ccccc1)C1(OC(=O)C(C)(C)C)C(=O)NC(=O)NC1=O (centres undefined)
Out: 205 to 207 °C

In: Quick one: COc1cnc(N2CCN(c3ccc(N)cc3)CC2)nc1
Out: 125 °C

In: Quick one: Nc1nc(N)nc(-c2nccc3ccccc23)n1
Out: > 250 °C

----------
REPORTED_PROPERTY: melting point

In: Which melting point is reported for this compound? N#Cc1ccc(Nc2nc(Oc3c(F)cccc3F)ccc2[N+](=O)[O-])cc1
Out: 234 to 236 °C

In: Quick one: COCCn1nc2c(N)nc3ncccc3c2c1CC(C)(C)C(N)=O
Out: 254 to 257 °C

In: Quick one: CCc1nn(-c2ccc(C(=N)N)cc2)c(=O)n1-c1ccc(CCC(=O)O)cc1
Out: > 250 °C

In: Quick one: O=C1CN(c2ccccc2)C(=O)N1C(=O)c1cccc(Oc2ccccc2)c1
Out: 157 to 158 °C

Read the next record carefully.
In: Which melting point is reported for this compound? COC1(C)COC(C)(OC)CO1 (stereo not given)
Out: 126 to 128 °C

Numbers sourced from a melting point compilation (Tetko et al.; mined from patent text by program, amines drawn as free bases though some values may be those of a salt).
